Provenance of the data: PubChem BioAssay (NCATS)

Tested on: PC15
Assay: qHTS profiling for inhibitors of Plasmodium falciparum proliferation (AID 504749); further: nearly all actives have a fitted effect of over 60% in size
Conditions: P. falciparum in erythrocytes, SYBR Green DNA, 72 h; series mostly up to 28.7 µM
Inconclusive results are not listed. The source made the active and inactive calls. The call rests on the fitted dose curve; in most records, active means well fitted inhibition curve with a large enough effect; inconclusive means small, poorly fitted or top-dose-only effect; inactive means flat fitted curve, though single readings scatter.
Classes used: active, inactive

{"columns": ["Compound", "Assigned class"],
 "data": [
  ["Cc1cccc(Nc2cc(Cl)nc(SCC(=O)O)n2)c1C", "inactive"],
  ["CN(C)CCN(Cc1ccccc1)c1ccccn1", "inactive"],
  ["O=c1cc[nH]c(=O)[nH]1", "inactive"],
  ["O=c1cc[nH]c(=S)[nH]1", "inactive"],
  ["CCN(CC)CCSC(=O)C(c1ccccc1)c1ccccc1", "inactive"],
  ["CC1=C(CC(=O)O)c2cc(F)ccc2/C1=C\\c1ccc(S(C)=O)cc1 (stereo not drawn)", "inactive"],
  ["O=C(O)[C@@H]1CSCN1", "inactive"],
  ["COc1cc(C)c(Cc2cnc(N)nc2N)cc1OC", "inactive"],
  ["Cc1ccc(C(C)C)cc2c(C)ccc1-2", "inactive"],
  ["Nc1ccc(S(=O)(=O)Nc2nccs2)cc1", "inactive"],
  ["CSc1ccc2c(c1)C(N1CCN(C)CC1)Cc1ccccc1S2 (stereo not drawn)", "inactive"],
  ["CCCCN(CCCC)CC(O)c1cc(Cl)cc2c1-c1ccc(Cl)cc1/C2=C/c1ccc(Cl)cc1 (stereo not drawn)", "active"],
  ["OCCN1CCN(CCCN2c3ccccc3Sc3ccc(Cl)cc32)CC1", "active"]
]}

---

Experiment: qHTS of pediatric cancer cell lines to identify multiple opportunities for drug repurposing: Primary screen for OHS-50 cells (AID 1347103); further: nearly all actives have a fitted effect of over 40% in size
Settings: OHS-50 osteosarcoma viability, CellTiter-Glo luminescence, 48 h; series mostly up to 57.3 µM
Results filed as inconclusive are left out. Calls of active or inactive are those of the source. Calls follow the shape of the dose curve; as a rule, active = well fitted cell-killing curve with a large enough effect; inconclusive = small, poorly fitted or top-dose-only effect; inactive = no such curve, though single readings can be large or run the other way.

{"columns": ["Cpd smiles", "outcome"],
 "data": [
  ["CC12CCC(CC1)C(C)(C)O2", "inactive"],
  ["O=C(O)c1ccccn1", "inactive"],
  ["Cn1c(=O)c2c(ncn2CC2OCCO2)n(C)c1=O", "inactive"],
  ["COC(=O)[C@H]1[C@H]2C[C@@H]3c4[nH]c5cc(OC)ccc5c4CCN3C[C@H]2C[C@@H](OC(=O)COc2ccc(OC)cc2)[C@@H]1OC", "inactive"],
  ["Oc1cn2c(n1)Nc1ccc(Cl)c(Cl)c1C2", "inactive"]
]}

---

Tested on: GB4
Assay: qHTS profiling for inhibitors of Plasmodium falciparum proliferation (AID 504749); further: nearly all actives have a fitted effect of over 60% in size
Details: P. falciparum in erythrocytes, SYBR Green DNA, 72 h; series mostly up to 28.7 µM
Records with an inconclusive call do not appear. Activity calls are given as the source filed them. The call rests on the fitted dose curve; in most records, active means well fitted inhibition curve with a large enough effect; inconclusive means small, poorly fitted or top-dose-only effect; inactive means flat fitted curve, though single readings scatter.
Classes used: true (1) = active, false (0) = inactive

{"columns": ["Compound", "Study target", "Assigned class"],
 "data": [
  ["CNCCC(Oc1ccc(C(F)(F)F)cc1)c1ccccc1 (stereo unspecified)", "GB4", "true (1)"],
  ["CCCCC(CC)COC(=O)c1ccccc1O (stereo unspecified)", "GB4", "false (0)"],
  ["CC(=O)CCC(=O)O", "GB4", "false (0)"],
  ["CSc1ccc2c(c1)C(N1CCN(C)CC1)Cc1ccccc1S2 (stereo unspecified)", "GB4", "true (1)"],
  ["NS(=O)(=O)c1cc2c(cc1Cl)NC(CSCc1ccccc1)=NS2(=O)=O", "GB4", "false (0)"],
  ["Oc1cccc(O)c1", "GB4", "false (0)"],
  ["CCCCc1ncc(/C=C(\\Cc2cccs2)C(=O)O)n1Cc1ccc(C(=O)O)cc1", "GB4", "false (0)"],
  ["O=c1cc(CO)occ1O", "GB4", "false (0)"],
  ["O=S(=O)(O)c1cc(I)c(O)c2ncccc12", "GB4", "false (0)"],
  ["CCN(CC)CCNC(=O)c1c(C)[nH]c(/C=C2\\C(=O)Nc3ccc(F)cc32)c1C", "GB4", "true (1)"],
  ["CCn1cc(C(=O)O)c(=O)c2cnc(N3CCNCC3)nc21", "GB4", "false (0)"],
  ["CCCCOc1cc(C(=O)OCCN(CC)CC)ccc1N", "GB4", "false (0)"],
  ["CCC(=O)c1ccc(O)cc1", "GB4", "false (0)"],
  ["NCCNCCNCCNCCN", "GB4", "false (0)"],
  ["O=C1O[C@H]([C@@H](O)CO)C(O)=C1O", "GB4", "false (0)"],
  ["Nc1ncnc2c1ncn2[C@@H]1O[C@H](CO)[C@@H](O)[C@H]1O", "GB4", "false (0)"],
  ["Cc1cccc(Nc2cc(Cl)nc(SCC(=O)O)n2)c1C", "GB4", "false (0)"],
  ["CCOc1nc2cccc(C(=O)O)c2n1Cc1ccc(-c2ccccc2-c2nn[nH]n2)cc1", "GB4", "false (0)"],
  ["Cc1ccc(C(C)C)cc2c(C)ccc1-2", "GB4", "false (0)"],
  ["Cn1c(=O)c2c(ncn2CC2OCCO2)n(C)c1=O", "GB4", "false (0)"],
  ["NC(=O)N/N=C/c1ccc([N+](=O)[O-])o1", "GB4", "true (1)"],
  ["COC(=O)C1=C(C)NC(C)=C(C(=O)OC)C1c1ccccc1[N+](=O)[O-]", "GB4", "false (0)"],
  ["NC(=O)NNc1ccccc1", "GB4", "false (0)"],
  ["CCOC(=O)[C@H](CCc1ccccc1)N[C@@H](C)C(=O)N1C(=O)N(C)C[C@H]1C(=O)O", "GB4", "false (0)"],
  ["COc1cc(C)c(Cc2cnc(N)nc2N)cc1OC", "GB4", "true (1)"],
  ["O=C1OC(OC(=O)c2cccnc2Nc2cccc(C(F)(F)F)c2)c2ccccc21 (stereo unspecified)", "GB4", "false (0)"],
  ["COc1cc2[nH]c(=O)[nH]c(=O)c2cc1OC", "GB4", "false (0)"],
  ["COc1cc(C(=O)N2CCOCC2)cc(OC)c1OC", "GB4", "false (0)"],
  ["CCOC(=O)c1ccc(O)cc1", "GB4", "false (0)"],
  ["[O-][n+]1cccc(CO)c1", "GB4", "false (0)"],
  ["CCCCCCCCCCCCCCCC(=O)NCCO", "GB4", "false (0)"],
  ["CSc1ccc2c(c1)N(CCC1CCCCN1C)c1ccccc1S2 (stereo unspecified)", "GB4", "true (1)"],
  ["Cc1ncc(COP(=O)(O)O)c(C=O)c1O", "GB4", "false (0)"],
  ["CC1(C)CO[C@@H](CC(=O)O)CN1", "GB4", "false (0)"],
  ["CC(=O)Nc1ccc(/C=N/NC(N)=S)cc1", "GB4", "false (0)"],
  ["COc1ccc2c(c1)C(=O)N(CCc1ccc(S(=O)(=O)NC(=O)NC3CCCCC3)cc1)C(=O)C2(C)C", "GB4", "false (0)"],
  ["C[C@@H]1CN(c2c(F)c(F)c3c(=O)c(C(=O)O)cn(C4CC4)c3c2F)C[C@H](C)N1", "GB4", "false (0)"],
  ["CCCCCCCCCCCCOS(=O)(=O)O", "GB4", "false (0)"],
  ["CC[C@@]1(c2ccccc2)NC(=O)N(C)C1=O", "GB4", "false (0)"],
  ["COc1ccc(S(=O)(=O)Nc2nnc(CC(C)C)s2)cc1", "GB4", "false (0)"],
  ["C[C@]12C[C@H](O)[C@H]3[C@@H](CCC4=CC(=O)CC[C@@]43C)[C@@H]1CC[C@@H]2C(=O)CO", "GB4", "false (0)"],
  ["Nc1ccc(S(=O)(=O)Nc2nccs2)cc1", "GB4", "false (0)"],
  ["CC12CCC(CC1)C(C)(C)O2", "GB4", "false (0)"],
  ["O=C1NC(=O)[C@@]2(CCOc3ccc(F)cc32)N1", "GB4", "false (0)"],
  ["Cc1ccc2nc(N)[nH]c(=O)c2c1Sc1ccncc1", "GB4", "true (1)"],
  ["Cc1cc(N)c2ccccc2[n+]1CCCCCCCCCC[n+]1c(C)cc(N)c2ccccc21", "GB4", "true (1)"],
  ["O=C(O)c1ccccc1O", "GB4", "false (0)"],
  ["OCC(O)CN1CCN(c2ccccc2)CC1 (stereo unspecified)", "GB4", "false (0)"],
  ["OCCN1CCN(CCCN2c3ccccc3Sc3ccc(Cl)cc32)CC1", "GB4", "true (1)"],
  ["O=C(O)c1ccccc1-c1ccc(C(F)(F)F)cc1", "GB4", "false (0)"],
  ["CC(O)COc1ccccc1 (stereo unspecified)", "GB4", "false (0)"]
]}

---

Experiment: qHTS of pediatric cancer cell lines to identify multiple opportunities for drug repurposing: Primary screen for OHS-50 cells (AID 1347103); further: nearly all actives have a fitted effect of over 40% in size
Conditions: OHS-50 osteosarcoma viability, CellTiter-Glo luminescence, 48 h; series mostly up to 57.3 µM
Inconclusive results are not listed. Calls of active or inactive are those of the source. The call rests on the fitted dose curve; in most records, active means well fitted cell-killing curve with a large enough effect; inconclusive means small, poorly fitted or top-dose-only effect; inactive means no such curve, though single readings can be large or run the other way.
Classes used: y for active, n for inactive

{"columns": ["Compound", "Assigned class"],
 "data": [
  ["CC[C@H]1CN2CCc3cc(OC)c(OC)cc3[C@@H]2C[C@@H]1C[C@H]1NCCc2cc(OC)c(OC)cc21", "y"],
  ["CN(C)CCCN1c2ccccc2CCc2ccccc21", "y"],
  ["O=C1c2c(O)cccc2Cc2cccc(O)c21", "n"],
  ["COc1ccc(Cl)cc1C(=O)NCCc1ccc(S(=O)(=O)NC(=O)NC2CCCCC2)cc1", "n"],
  ["Nc1nc2c(ncn2CCC(CO)CO)c(=O)[nH]1", "n"],
  ["Cc1cccc(C)c1NC(=O)CN(CC(=O)O)CC(=O)O", "n"],
  ["Cc1c(Cl)cccc1Nc1ccccc1C(=O)O", "n"],
  ["[Cl][In]([Cl])[Cl]", "y"],
  ["Cc1cc2c(cc1S(N)(=O)=O)S(=O)(=O)CCC2", "n"],
  ["CC(O)COc1ccccc1 (configuration not stated)", "n"],
  ["CCN(CC)CCNC(C(=O)OCCC(C)C)c1ccccc1 (configuration not stated)", "n"],
  ["CCOc1nc2cccc(C(=O)O)c2n1Cc1ccc(-c2ccccc2-c2nn[nH]n2)cc1", "n"]
]}
